test: Solubility of the compound of Formula (I) in media without surfactant; assay type: physicochemical; settings: aqueous buffer; hydrochloric acid solution, buffer, and water without surfactant at 37° C. and pH 1.0˜9.0
MEASUREMENT KIND: solubility

Exercise: For Cc1cc(OC[P@@]2(=O)OCC[C@@H](c3cccc(Cl)c3)O2)cc(C)c1Cc1ccc(O)c(C(C)C)c1 , what is its reported solubility?
Solution: < 0.5 ng/mL

---

assay: Solubility of the compound of Formula (I) in media without surfactant; format: physicochemical; conditions: medium containing no surfactant
MEASUREMENT KIND: solubility

Exercise: For Cc1cc(OC[P@@]2(=O)OCC[C@@H](c3cccc(Cl)c3)O2)cc(C)c1Cc1ccc(O)c(C(C)C)c1 , what is its reported solubility?
Solution: < 0.5 ng/mL
